// provenance: patent US20230265187A1

target: T1, His-tagged cynomolgus monkey TIGIT (Acro Biosystems #TIT-05223) (cynomolgus monkey, UniProt A0A7N9I9V4 89-209); experiment: ELISA, coated His-TIGIT, 1 ug/ml
T1 construct: Bought protein; also called cyno TIGIT; cynomolgus TIGIT; not shown: His tag
T1 sequence (A0A7N9I9V4 entry or part of it): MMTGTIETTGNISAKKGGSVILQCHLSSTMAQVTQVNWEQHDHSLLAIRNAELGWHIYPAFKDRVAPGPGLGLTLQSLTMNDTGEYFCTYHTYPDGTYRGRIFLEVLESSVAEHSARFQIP
Entries annotated with measured Elisa OD450
# output: bare number, implied unit OD450

43586p2.H02 (scFv, V domains shown) VH: EVQLLESGGGLVQPGGSLRLSCATSGFTVSDHYVSWVRQAPGKGLEWVSTSSSTNWNDGRTYYADSVKGRFTISRDNSENTLYLQMNSLRAEDTAVYYCAKGSYGMDVWGQGTTVTVSS VL: QSVLTQPPSASGTPGQRVTISCSASNSYIGTKYFYWYQQLPGTAPKLLIYLDSQRPSGVPDRFSGSKSGTSVSLAISGLQSEDEADYYCAFWDDHLHGWVFGGGTKLTVL ... 1.09
43586p1.2.B8 (scFv, V domains shown) VH: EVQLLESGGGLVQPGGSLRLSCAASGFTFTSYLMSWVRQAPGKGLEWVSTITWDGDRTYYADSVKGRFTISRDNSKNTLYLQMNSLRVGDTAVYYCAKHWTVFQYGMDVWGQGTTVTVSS VL: QSVLTQPASASGTPGQRVTITCSGTISNIETKYVSWYQQLPGTAPKLLIYGNHQRPSGVPDRFSGSKSGTSASLAISGLQSEDEADYYCASWENDLKSWVFGGGTKLTVL ... 1.46
43586p1.2.E1 (scFv, V domains shown) VH: EVQLLESGGGLVQPGGSLRLSCAASGFTFSDYLMTWVRQAPGKELEWVSTITWDGDRTYYADSVKGRFTISRDNSKNTLYLQMNSLRAEDTAVYYCAKHWTVFQYGMDVWGQGTTVTVSS VL: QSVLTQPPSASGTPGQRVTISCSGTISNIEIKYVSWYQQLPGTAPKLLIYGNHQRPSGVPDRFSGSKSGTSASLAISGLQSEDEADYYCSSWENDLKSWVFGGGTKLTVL ... 1.85
43586p2.B03 (scFv, V domains shown) VH: EVQLLESGGGWVQPGGSLRLSCAASGFTFIDYWMSWVRQAPGKGLEWVSSISWIGDTTFYADSVKGRFTISRDSSLNTVYLQMNSLRAEDTAVYYCAKHWTVYQYGMDVWGQGTTVTVSS VL: QSVLTQPPSASGTPGQRVTISCSGGSSKIGSKYVHWYQQLPGTAPKLLIYKDDQRPSGVPDRFSGSKSGTSASLAISGLQSEDEADYYCAAWDDRVNAWVFGGGTKLTVL ... 0.047
43586p1.2.A4 (scFv, V domains shown) VH: EVQLLESGGGLVQPGGSLRLSCAASGFTVSDHHMSWVRQAPGKGLEWVSGIDPGGKTYYVDSVKGRFTISRDNSKNTLYLQMNSLRAEDTAVYYCAREQYDWNDDMDVWGQGTTVTVSS VL: QSVLTQPPSASGTPGQRVTISCSGSRSNVGDHYVSWYQQFPGTAPKLLIYANYQRPSGVPDRFSGSKSGTSASLAISGLQSEDEADHYCASWDASLNVWVFGGGTKLTVL ... 0.239
43586p1.2.C11 (scFv, V domains shown) VH: EVQLLESGGGLVQPGGSLRLSCAASGFTFDDYVMSWVRQAPGKGLEWVSLINWNGDKTYCADSVKGRFTISRDNSKNTLYLQMNSLRAEDTAIYYCAKHWIVFQYGMDVWGQGTTVTVSS VL: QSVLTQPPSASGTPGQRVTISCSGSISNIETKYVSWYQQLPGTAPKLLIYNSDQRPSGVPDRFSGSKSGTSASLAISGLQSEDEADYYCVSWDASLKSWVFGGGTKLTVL ... 1.81

stdin: Bench note: what Elisa OD450 did 43586p2.C01 (scFv, V domains shown) VH: EVQLLESGGGLVQPGGSLRLSCAASGFTFSDYYMNWVRQAPGKGLEYVASINWNGGTTYYADSVKGRFTISRDNSKNTLYLQMNSLRAEDTAVYYCAKDQNWNFYYGMDVWGQGTTVTVSS VL: QSVLTQPPSASGTPGQRVTISCSGGSSNIGNNFVSWYQQLPGTAPKLLIYNEIKRPSGVPDRFSASKSGTSASLAISGLQSEDEADYYCASWDGSLRGWVFGGGTKLTVL show?
stdout: 1.32

stdin: Bench note: what Elisa OD450 did 43586p1.2.F9 (scFv, V domains shown) VH: EVQLLESGGGLVQPGGSLRLSCAASGFTFDDYVMSWVRQAPGKGLEWVSLINWNGDKTYYADSVKGRFTISRDNSKNTLYLQMNSLRAEDTAIYYCAKHWIVFQYGMDVWGRGTTVTVSS VL: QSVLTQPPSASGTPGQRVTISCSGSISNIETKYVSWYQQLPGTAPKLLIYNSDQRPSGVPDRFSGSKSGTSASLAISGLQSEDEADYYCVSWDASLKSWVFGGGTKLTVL show?
stdout: 1.71

stdin: Bench note: what Elisa OD450 did 43645p1.F11 (scFv, V domains shown) VH: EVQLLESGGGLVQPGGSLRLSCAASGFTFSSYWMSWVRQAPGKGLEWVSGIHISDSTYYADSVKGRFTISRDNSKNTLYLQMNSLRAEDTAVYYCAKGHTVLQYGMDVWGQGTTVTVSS VL: QSGLTQPPSASGTPGQRVTISCSGDISNTRNNYVSWYQQLPGTAPKLLIYRNSQRPSGVPDRFSGSKSATSASLAISGLQSEDEADYYCGTWDNTLNAWVFGGGTKLTVL show?
stdout: 1.8

stdin: Bench note: what Elisa OD450 did 43586p1.2.C12 (scFv, V domains shown) VH: ESGGGLVQPGGSLRLSCAASGFTFSDYLMTWVRQAPGKGLEWVSTITWDGDRTYYADSVKGRFTISRDNSKNTLYLQMNSLRAEDTAVYYCAKHWTVFQYGMDVWGQGTTVTVSS VL: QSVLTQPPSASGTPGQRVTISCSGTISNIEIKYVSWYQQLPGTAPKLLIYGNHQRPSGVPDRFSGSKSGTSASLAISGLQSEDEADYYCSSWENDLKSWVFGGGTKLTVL show?
stdout: 1.68
